Listing: Dmax of selected compounds
TESTED_TARGET: SMARCA4 (Homo sapiens)
Sequence (P51532 whole entry): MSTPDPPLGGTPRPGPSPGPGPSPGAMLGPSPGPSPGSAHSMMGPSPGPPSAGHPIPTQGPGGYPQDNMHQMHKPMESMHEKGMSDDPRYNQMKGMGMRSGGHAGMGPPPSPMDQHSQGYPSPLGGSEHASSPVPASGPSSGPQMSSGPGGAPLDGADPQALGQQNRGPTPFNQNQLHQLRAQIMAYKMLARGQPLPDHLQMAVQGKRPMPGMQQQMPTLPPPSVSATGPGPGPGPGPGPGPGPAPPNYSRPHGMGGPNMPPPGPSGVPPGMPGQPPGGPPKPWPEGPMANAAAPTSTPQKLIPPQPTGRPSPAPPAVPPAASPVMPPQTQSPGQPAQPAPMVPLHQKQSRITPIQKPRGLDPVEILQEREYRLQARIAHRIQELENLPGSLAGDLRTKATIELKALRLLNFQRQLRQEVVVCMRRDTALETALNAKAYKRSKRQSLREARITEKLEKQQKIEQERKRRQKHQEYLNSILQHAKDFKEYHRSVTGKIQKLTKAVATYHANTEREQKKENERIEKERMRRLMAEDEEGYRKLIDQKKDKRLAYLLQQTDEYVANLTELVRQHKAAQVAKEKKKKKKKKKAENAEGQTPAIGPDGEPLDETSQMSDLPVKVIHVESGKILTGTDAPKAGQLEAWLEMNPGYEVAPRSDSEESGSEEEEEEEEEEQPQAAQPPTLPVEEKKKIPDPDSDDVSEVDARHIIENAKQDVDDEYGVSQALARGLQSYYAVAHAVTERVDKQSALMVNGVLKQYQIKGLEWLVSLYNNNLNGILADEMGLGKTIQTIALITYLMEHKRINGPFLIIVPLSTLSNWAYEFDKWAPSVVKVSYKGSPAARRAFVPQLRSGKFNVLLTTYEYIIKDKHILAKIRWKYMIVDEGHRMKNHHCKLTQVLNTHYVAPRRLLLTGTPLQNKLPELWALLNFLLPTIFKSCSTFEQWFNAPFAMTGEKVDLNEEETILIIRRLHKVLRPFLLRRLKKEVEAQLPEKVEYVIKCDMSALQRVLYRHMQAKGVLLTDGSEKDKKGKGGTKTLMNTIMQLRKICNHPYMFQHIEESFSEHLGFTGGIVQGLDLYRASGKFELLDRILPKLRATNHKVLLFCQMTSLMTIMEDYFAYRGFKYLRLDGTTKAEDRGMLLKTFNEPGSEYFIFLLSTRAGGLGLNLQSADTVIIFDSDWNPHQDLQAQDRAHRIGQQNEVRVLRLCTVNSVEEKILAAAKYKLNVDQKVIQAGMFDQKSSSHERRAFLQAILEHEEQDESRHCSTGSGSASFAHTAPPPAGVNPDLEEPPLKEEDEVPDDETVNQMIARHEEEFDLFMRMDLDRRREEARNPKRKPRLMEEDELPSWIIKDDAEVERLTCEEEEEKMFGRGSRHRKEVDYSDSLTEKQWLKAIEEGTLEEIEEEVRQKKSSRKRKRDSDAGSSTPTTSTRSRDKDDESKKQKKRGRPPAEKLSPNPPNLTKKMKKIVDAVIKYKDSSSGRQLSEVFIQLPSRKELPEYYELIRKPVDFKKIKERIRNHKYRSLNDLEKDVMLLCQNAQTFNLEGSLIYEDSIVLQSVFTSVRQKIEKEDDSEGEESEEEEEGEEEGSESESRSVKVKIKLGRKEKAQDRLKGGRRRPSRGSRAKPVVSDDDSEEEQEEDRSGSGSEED
TEST_DESCRIPTION: HiBiT assay for protein degradation, Hela SMARCA4-HiBiT cells (A series)
Type: cell-based
Design: fuse HiBiT to the carboxy terminus of SMARCA2 (Promega CS302365) or SMARCA4 (Promega CS3023225); host or cells: HeLa (CRISPR/Cas9 HiBiT knock-in)
RUN_CONDITIONS: Hela SMARCA4-HiBiT cells, 24 hours treatment; read-out: SMARC A4 Hela HiBit Dmax

For orientation, consider the following solved cases.
Cc1ncsc1-c1ccc([C@H](CN2CCOCC2)NC(=O)[C@@H]2C[C@@H](O)CN2C(=O)[C@H](C(C)C)n2cc([C@H]3CC[C@H](CN4CCC(c5ccc6c(c5)-n5c(nc(=O)c7c(Cl)cccc75)C65CCCCC5)CC4)CC3)nn2)cc1 [Compound A103]: 50 to 69%
CC1(C)c2ccc(C3CCN(C[C@H]4CC[C@H](c5cn([C@H](C(=O)N6C[C@H](O)C[C@H]6C(=O)N[C@@H](CN6CCOCC6)c6ccc(-c7scnc7C(=O)O)cc6)C6CCOCC6)nn5)CC4)CC3)cc2-n2c1nc(=O)c1c(Cl)cccc12 [Compound A133]: < 50%
Cc1ncsc1-c1ccc([C@H](CN2CC3(COC3)C2)NC(=O)[C@@H]2C[C@@H](O)CN2C(=O)[C@@H](n2cc([C@H]3CC[C@H](CN4CCC(c5ccc6c(c5)-n5c(nc(=O)c7c(Cl)cccc75)C6(C)C)CC4)CC3)nn2)C(C)(C)C)cc1 [Compound A98]: < 50%
Cc1ncsc1-c1ccc([C@@H](NC(=O)[C@@H]2C[C@@H](O)CN2C(=O)[C@@H](n2cc(C3CC3)nn2)C(C)(C)C)C(=O)N2CCC3(CCC(CN4CCC(c5ccc6c(c5)-n5c(nc(=O)c7c(Br)cccc75)C65CCCCC5)CC4)CC3)CC2)cc1 [Compound A137]: 70 to 90%
Cc1ncsc1-c1ccc([C@H](CN2CCOCC2)NC(=O)[C@@H]2C[C@@H](O)CN2C(=O)[C@H](C2CCCCC2)n2cc([C@H]3CC[C@H](CN4CCC(c5ccc6c(c5)-n5c(nc(=O)c7c(Br)cccc75)C65CCCCC5)CC4)CC3)nn2)cc1 [Compound A123]: 70 to 90%

Any idea what its Dmax is? The compound is Cc1ncsc1-c1ccc([C@H](CN2CCOCC2)NC(=O)[C@@H]2C[C@@H](O)CN2C(=O)[C@@H](n2cc([C@H]3CC[C@H](CN4CCC(c5ccc6c(c5)-n5c(nc(=O)c7c(Cl)cccc75)C6(C)C)CC4)CC3)nn2)C(C)(C)O)cc1 [Compound A159]
50 to 69%

I am curious: what Dmax value has been reported for Cc1ccccc1-c1ccc([C@H](CN2CCOCC2)NC(=O)[C@@H]2C[C@@H](O)CN2C(=O)[C@@H](n2cc([C@H]3CC[C@H](CN4CCC(c5ccc6c(c5)-n5c(nc(=O)c7c(Cl)cccc75)C65CCCCC5)CC4)CC3)nn2)C(C)(C)C)cc1 [Compound A163] ?
50 to 69%

Which Dmax is reported for this compound? Cc1ncsc1-c1ccc([C@H](CO)NC(=O)[C@@H]2C[C@@H](O)CN2C(=O)[C@H](C2CCCCC2)n2cc(-c3ccc(CN4CCC(c5ccc6c(c5)-n5c(nc(=O)c7c(Br)cccc75)C65CCCCC5)CC4)cc3)nn2)cc1 [Compound A129]
< 50%

====

// Dmax lookup, one value per entry
TESTED_TARGET: SMARCA4 (Homo sapiens)
TEST_DESCRIPTION: HiBit assay in engineered HT1080 CRISPR knock-in cell, 6 hrs (B series), SMARCA4
Type: cell-based
RUN_CONDITIONS: HT-1080, HT1080 CRISPR knock-in cells, 6 hrs incubation; read-out: SMARC A4 HT1080 HiBit Dmax(%)

Cc1ncsc1-c1ccc2c(NC(=O)[C@@H]3C[C@@H](O)CN3C(=O)[C@@H](n3cc([C@H]4CC[C@H](CN5CCC(c6ccc7c(c6)-n6c(nc(=O)c8c(Cl)cccc86)C7(C)C)CC5)CC4)nn3)C(C)(C)C)n[nH]c2c1: < 50%

So what does the record say about Dmax for Cc1ncsc1-c1ccc([C@H](C)NC(=O)[C@@H]2C[C@@H](O)CN2C(=O)[C@@H](c2cc(OCCCCN3CCC(c4ccc5c(c4)-n4c(nc(=O)c6c(Cl)cccc64)C5(C)C)CC3)no2)C(C)C)cc1 ?
70 to 90%

====

TESTED_TARGET: SMARCA2 (Homo sapiens)
Sequence (P51531 whole entry): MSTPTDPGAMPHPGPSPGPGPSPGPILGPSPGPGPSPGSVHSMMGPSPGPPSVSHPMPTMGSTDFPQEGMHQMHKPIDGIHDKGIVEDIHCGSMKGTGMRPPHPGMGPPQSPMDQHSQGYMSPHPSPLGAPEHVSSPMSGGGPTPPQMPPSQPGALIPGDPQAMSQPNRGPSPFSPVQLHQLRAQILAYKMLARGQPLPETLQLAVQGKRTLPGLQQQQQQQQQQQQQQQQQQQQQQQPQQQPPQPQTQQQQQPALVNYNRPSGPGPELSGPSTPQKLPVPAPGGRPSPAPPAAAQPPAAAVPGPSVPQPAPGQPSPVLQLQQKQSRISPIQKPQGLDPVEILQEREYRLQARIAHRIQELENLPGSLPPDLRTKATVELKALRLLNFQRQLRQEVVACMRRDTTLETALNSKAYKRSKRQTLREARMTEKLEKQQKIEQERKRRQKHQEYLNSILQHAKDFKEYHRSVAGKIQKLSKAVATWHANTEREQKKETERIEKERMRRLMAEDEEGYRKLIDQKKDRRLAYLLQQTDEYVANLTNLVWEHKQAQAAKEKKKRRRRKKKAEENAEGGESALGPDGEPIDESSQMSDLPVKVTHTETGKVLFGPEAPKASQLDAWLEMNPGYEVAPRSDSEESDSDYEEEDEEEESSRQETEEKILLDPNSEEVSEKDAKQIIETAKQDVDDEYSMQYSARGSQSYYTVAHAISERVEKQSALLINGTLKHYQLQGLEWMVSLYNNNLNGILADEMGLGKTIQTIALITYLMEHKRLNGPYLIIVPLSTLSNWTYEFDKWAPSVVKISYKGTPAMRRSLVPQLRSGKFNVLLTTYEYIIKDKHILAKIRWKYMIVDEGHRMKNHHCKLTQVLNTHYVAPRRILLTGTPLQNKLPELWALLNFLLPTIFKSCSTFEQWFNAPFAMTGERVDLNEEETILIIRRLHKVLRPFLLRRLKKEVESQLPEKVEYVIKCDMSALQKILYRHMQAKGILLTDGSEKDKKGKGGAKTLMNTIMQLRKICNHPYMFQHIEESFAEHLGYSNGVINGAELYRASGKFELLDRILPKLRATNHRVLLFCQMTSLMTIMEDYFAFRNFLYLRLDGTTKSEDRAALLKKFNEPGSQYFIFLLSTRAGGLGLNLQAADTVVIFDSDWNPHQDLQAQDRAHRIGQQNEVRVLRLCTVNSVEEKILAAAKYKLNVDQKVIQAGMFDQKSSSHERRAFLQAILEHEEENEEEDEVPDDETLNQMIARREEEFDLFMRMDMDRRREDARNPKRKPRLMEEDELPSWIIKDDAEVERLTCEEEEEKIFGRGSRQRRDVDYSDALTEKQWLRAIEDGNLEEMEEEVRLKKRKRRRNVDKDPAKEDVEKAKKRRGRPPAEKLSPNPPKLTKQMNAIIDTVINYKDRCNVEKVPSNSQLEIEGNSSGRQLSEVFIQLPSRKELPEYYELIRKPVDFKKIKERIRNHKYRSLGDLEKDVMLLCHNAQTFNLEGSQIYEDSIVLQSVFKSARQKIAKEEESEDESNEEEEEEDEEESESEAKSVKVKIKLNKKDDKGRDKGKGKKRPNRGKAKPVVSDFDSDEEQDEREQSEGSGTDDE
TEST_DESCRIPTION: HiBiT assay for protein degradation, Hela SMARCA2-HiBiT cells (A series);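 also: 24 h compound treatment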
Type: cell-based
Parameters: Hela cells were genetically modified via CRISPR/Cas9 to fuse HiBiT to the carboxy terminus of SMARCA2; host or cells: HeLa (CRISPR/Cas9 HiBiT knock-in)
RUN_CONDITIONS: Hela SMARCA2-HiBiT cells, 24 hours treatment; read-out: SMARC A2 Hela HiBit Dmax (%)
RECORDED_METRIC: Dmax

The examples below pair each entry with its known result.
Cc1ncsc1-c1ccc([C@H](CCCCCN2CCC(c3ccc4c(c3)C3(CCCCC3)c3nc(=O)c5c(Br)cccc5n3-4)CC2)NC(=O)[C@H]2C[C@H](O)CN2C(=O)[C@@H](n2cc(C3CC3)nn2)C(C)(C)C)cc1: > 90%
Cc1ncsc1-c1ccc([C@H](C)NC(=O)[C@@H]2C[C@@H](O)CN2C(=O)[C@@H](NC(=O)CN2CCC(c3ccc4c(c3)-n3c(nc(=O)c5c(Cl)cccc53)C43CCCCC3)CC2)C(C)(C)C)cc1: > 90%

Suppose we examine the compound Cc1ncsc1-c1ccc([C@H](CC(=O)N2CCC(N3CCC(c4ccc5c(c4)-n4c(nc(=O)c6c(Cl)cccc64)C54CCCCC4)CC3)CC2)NC(=O)[C@@H]2C[C@@H](O)CN2C(=O)[C@@H](n2cc(C3CC3)nn2)C(C)(C)C)cc1 ; what Dmax value has been reported?
70 to 90%

Which Dmax value belongs to COCCOCCOCC[C@H](NC(=O)[C@@H]1C[C@@H](O)CN1C(=O)[C@@H](n1cc([C@H]2CC[C@H](CN3CCC(c4ccc5c(c4)-n4c(nc(=O)c6c(Cl)cccc64)C54CCCCC4)CC3)CC2)nn1)C(C)(C)C)c1ccc(-c2scnc2C)cc1 ?
> 90%

Can you share its Dmax? I mean this compound: Cc1nc(C)c(-c2ccc([C@H](CN3CCOCC3)NC(=O)[C@@H]3C[C@@H](O)CN3C(=O)[C@@H](n3cc([C@H]4CC[C@H](CN5CCC(c6ccc7c(c6)-n6c(nc(=O)c8c(Cl)cccc86)C76CCCCC6)CC5)CC4)nn3)C(C)(C)C)cc2)o1
70 to 90%

====

Listing of recorded DC50 by entry.
TESTED_TARGET: SMARCA4 (Homo sapiens)
TEST_DESCRIPTION: HiBit assay in engineered HT1080 CRISPR knock-in cell, 6 hrs (B series), SMARCA4
Format: cell-based
RUN_CONDITIONS: HT1080 CRISPR knock-in cells, 6 hrs incubation; read-out: SMARC A4 HT1080 HiBit DC50

Fill in: DC50 of Cc1ncsc1-c1ccc([C@H](C)NC(=O)[C@@H]2C[C@@H](O)CN2C(=O)[C@@H](c2cc(N3CCC(CN4CCC(c5ccc6c(c5)-n5c(nc(=O)c7c(Cl)cccc75)C6(C)C)CC4)CC3)no2)C(C)C)cc1 [Compound B37] is ___
< 0.1 µM

Give its DC50 value. Item: Cc1ncsc1-c1ccc([C@H](C)NC(=O)[C@@H]2C[C@@H](O)CN2C(=O)C(c2cc(N3CCC(c4ccc5c(c4)C(C)(C)c4nc(=O)c6c(Cl)cccc6n4-5)CC3)no2)C(C)C)cc1 (stereo partly shown) [Compound B42]
< 0.1 µM

Given the entry Cc1ncsc1-c1ccc2c(NC(=O)[C@@H]3C[C@@H](O)CN3C(=O)[C@@H](n3cc([C@H]4CC[C@H](CN5CCC(c6ccc7c(c6)-n6c(nc(=O)c8c(Cl)cccc86)C7(C)C)CC5)CC4)nn3)C(C)(C)C)nccc2c1 [Compound B143] , report its measured DC50.
> 1 µM

I'd like to know its DC50. The molecule in question is Cc1ncsc1-c1ccc([C@H](C)NC(=O)[C@@H]2C[C@@H](O)CN2C(=O)[C@H](C(C)C)n2cc(CCN3CCC(c4ccc5c(c4)C(C)(C)c4nc(=O)c6c(Cl)cccc6n4-5)CC3)nn2)cc1 [Compound B17]
< 0.1 µM

====

TESTED_TARGET: SMARCA4 (Homo sapiens)
TEST_DESCRIPTION: HiBiT assay for protein degradation, Hela SMARCA4-HiBiT cells (A series)
Assay type: cell-based
Set-up: fuse HiBiT to the carboxy terminus of SMARCA2 (Promega CS302365) or SMARCA4 (Promega CS3023225); host or cells: HeLa (CRISPR/Cas9 HiBiT knock-in)
RUN_CONDITIONS: Hela SMARCA4-HiBiT cells, 24 hours treatment; read-out: SMARC A4 Hela HiBit DC50
RECORDED_METRIC: DC50

Cc1ncsc1-c1ccc([C@H](CN2CCC3(COC3)C2)NC(=O)[C@@H]2C[C@@H](O)CN2C(=O)[C@@H](n2cc([C@H]3CC[C@H](CN4CCC(c5ccc6c(c5)-n5c(nc(=O)c7c(Cl)cccc75)C65CCCCC5)CC4)CC3)nn2)C(C)(C)C)cc1: > 1000 nM

For the molecule Cc1ncsc1-c1ccc([C@H](C)NC(=O)[C@@H]2C[C@@H](O)CN2C(=O)[C@H](C2CCN(C(=O)CN3CCC(c4ccc5c(c4)-n4c(nc(=O)c6c(Cl)cccc64)C54CCCCC4)CC3)CC2)n2cc(C3CC3)nn2)cc1 , what DC50 is on record?
> 1000 nM
